The entries below come with measured pEC50 values attached.
species on record: Rattus norvegicus; experiment: In vitro growth hormone release in rat pituitary cells assay was determined; assay type: functional; details: Pituitary gland cell, read-out: ED50 (the source's name)
pEC50: −log10 of the molar value.
measured_metric: pEC50

[[record]]
substance_smiles = "CN(Cc1ccc(-c2ccccc2-c2nn[nH]n2)cc1)C(=O)[C@@H](CCc1ccccc1)NC(=O)CCC(C)(C)N"
value_operator = "<"
measurement = 6.52

[[record]]
substance_smiles = "CC[C@@H](NC(=O)CC(C)(C)N)C(=O)N(Cc1ccc(-c2ccccc2-c2nn[nH]n2)cc1)c1ccccc1"
value_operator = "="
measurement = 4.96

[[record]]
substance_smiles = "CN(Cc1ccc(-c2ccccc2-c2nn[nH]n2)cc1)C(=O)[C@@H](CCc1ccccc1)NC(=O)C(C)(C)N"
value_operator = "="
measurement = 7.52

[[record]]
substance_smiles = "CCN(Cc1ccc(-c2ccccc2-c2nn[nH]n2)cc1)C(=O)[C@@H](CCc1ccccc1)NC(=O)C(C)(C)N"
value_operator = "<"
measurement = 6.30

[[record]]
substance_smiles = "CN(C(=O)[C@@H](CCc1ccccc1)NC(=O)C(C)(C)N)c1ccc(-c2ccccc2-c2nn[nH]n2)cc1"
value_operator = "="
measurement = 6.52

[[record]]
substance_smiles = "CC(C)N(Cc1ccc(-c2ccccc2-c2nn[nH]n2)cc1)C(=O)[C@@H](CCc1ccccc1)NC(=O)C(C)(C)N"
value_operator = "<"
measurement = 6.30

[[record]]
substance_smiles = "CC(C)(N)CC(=O)N[C@H](COCc1ccccc1)C(=O)NCc1ccc(-c2ccccc2-c2nn[nH]n2)cc1"
value_operator = "<"
measurement = 6.00

[[record]]
substance_smiles = "CC(C)(N)CC(=O)N[C@H](CCc1ccccc1)C(=O)NCc1ccc(-c2ccccc2-c2nn[nH]n2)cc1"
value_operator = "="
measurement = 6.70

